Sourced from patent US10815210B2

molecular target: human SGLT2 (Homo sapiens); assay: SGLT2 assay: Na-dependent 14C-AMG uptake in CHO-K1 cells stably expressing human SGLT2; details: 500 μM AMG, 2 hours at 37° C.
Sequence (P31639 whole entry): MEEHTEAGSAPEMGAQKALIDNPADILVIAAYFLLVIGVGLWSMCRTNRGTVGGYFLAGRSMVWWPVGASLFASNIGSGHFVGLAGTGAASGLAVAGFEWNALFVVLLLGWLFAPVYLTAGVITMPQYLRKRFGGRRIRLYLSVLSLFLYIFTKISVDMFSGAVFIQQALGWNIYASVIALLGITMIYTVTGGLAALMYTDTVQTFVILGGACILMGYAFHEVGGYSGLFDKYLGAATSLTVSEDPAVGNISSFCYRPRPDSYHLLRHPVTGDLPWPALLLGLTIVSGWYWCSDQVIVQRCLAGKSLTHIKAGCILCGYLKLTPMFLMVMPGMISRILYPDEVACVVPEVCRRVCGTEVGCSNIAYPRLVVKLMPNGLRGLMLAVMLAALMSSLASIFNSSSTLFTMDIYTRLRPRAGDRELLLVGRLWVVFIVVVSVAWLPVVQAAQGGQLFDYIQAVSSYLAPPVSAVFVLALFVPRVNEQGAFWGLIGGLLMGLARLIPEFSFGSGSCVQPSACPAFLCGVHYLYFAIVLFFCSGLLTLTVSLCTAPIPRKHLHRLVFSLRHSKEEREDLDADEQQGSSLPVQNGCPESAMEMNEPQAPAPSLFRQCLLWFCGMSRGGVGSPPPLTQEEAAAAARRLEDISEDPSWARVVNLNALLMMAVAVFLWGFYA
pIC50: −log10 of the molar value.
quantity: pIC50

Sample records with pIC50:
Task: I would be grateful if you could share the reported pIC50 for `[2H]C1([2H])Cc2ccc(Cc3cc([C@@H]4O[C@H](CO)[C@@H](O)[C@H](O)[C@H]4O)c(OC)cc3Cl)cc21` .
Output: 8.70

Task: I would be grateful if you could share the reported pIC50 for `CCc1cc(O)c([C@@H]2O[C@H](CO)[C@@H](F)[C@H](O)[C@H]2O)cc1Cc1ccc2c(c1)CC2` .
Output: 8.70

[A] OC[C@H]1O[C@@H](c2ccc(C3CC3)c(Cc3ccc4c(c3)CC4)c2)[C@H](O)[C@@H](O)[C@@H]1O
[B] [2H]C1([2H])Cc2cc(Cc3cc([C@@H]4O[C@H](CO)[C@@H](O)[C@H](O)[C@H]4O)ccc3CC)ccc21
Task: Which value of pIC50 is numerically greater: that of A or that of B ? Bench note: the answer is the label of the chosen record.
Output: B
(B: 8.70, A: 8.30)

====

Molecular target: human SGLT1 (Homo sapiens)
Sequence (P13866 1-664): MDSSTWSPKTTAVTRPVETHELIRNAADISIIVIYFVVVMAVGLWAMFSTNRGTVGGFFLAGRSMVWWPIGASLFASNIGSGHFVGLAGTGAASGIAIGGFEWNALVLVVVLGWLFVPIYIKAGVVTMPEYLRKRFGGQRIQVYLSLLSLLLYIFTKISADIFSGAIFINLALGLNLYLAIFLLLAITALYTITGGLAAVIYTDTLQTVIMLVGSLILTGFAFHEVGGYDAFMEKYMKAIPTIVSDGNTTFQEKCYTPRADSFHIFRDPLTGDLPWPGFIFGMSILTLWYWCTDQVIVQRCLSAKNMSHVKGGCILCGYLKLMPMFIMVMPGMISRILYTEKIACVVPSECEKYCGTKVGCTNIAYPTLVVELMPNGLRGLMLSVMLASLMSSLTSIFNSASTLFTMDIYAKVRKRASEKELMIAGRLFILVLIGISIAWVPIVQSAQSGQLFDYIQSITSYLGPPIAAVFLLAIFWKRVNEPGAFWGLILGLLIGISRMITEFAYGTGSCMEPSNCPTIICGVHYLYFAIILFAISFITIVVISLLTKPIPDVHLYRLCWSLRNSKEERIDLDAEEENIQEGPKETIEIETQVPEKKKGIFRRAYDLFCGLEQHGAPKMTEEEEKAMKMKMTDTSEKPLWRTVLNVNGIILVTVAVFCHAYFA
Experiment: SGLT1 assay: Na-dependent 14C-AMG uptake in CHO-K1 cells stably expressing human SGLT1
Settings: 500 μM AMG, 2 hours at 37° C.
Description: SGLT1 and SGLT2 were cloned in form of cDNA from human small intestine (Genbank M24847), and from human kidney (Genbank M95549), respectively. […] Inhibition of SGLT1 and SGLT2 activity was assessed in CHO K1 cells stably expressing either human SGLT1 or SGLT2, using the SGLT specific glucose analog methyl-glucopyranoside (Sigma Catalog No. M-9376). […] The cells were then solubilized by adding 60 μl of MICROSCINT™20 and the Na-dependent ^14C-AMG uptake was quantified by measuring radioactivity. […]
pIC50: −log10 of the molar value.
quantity: pIC50

Task: I would be grateful if you could share the reported pIC50 for CCOc1cc(OC)c(Cc2ccc3c(c2)CC3)cc1[C@@H]1O[C@H](CO)C(F)(F)[C@H](O)[C@H]1O [Compound 109] .
Output: 6.80

[A] COc1cc(O)c([C@@H]2O[C@H](CO)[C@@H](O)[C@H](O)[C@H]2O)cc1Cc1ccc2c(c1)CC2 [Compound 10]
[B] OC[C@H]1O[C@@H](c2cc(Cc3ccc4c(c3)CC4)c(Cl)cc2OCF)[C@H](O)[C@@H](O)[C@@H]1O [Compound 40]
[C] CCc1cc(OCF)c([C@@H]2O[C@H](CO)[C@@H](O)[C@H](O)[C@H]2O)cc1Cc1ccc2c(c1)CC2 [Compound 42]
Task: Arrange the 3 compounds from largest to smallest pIC50. The reply should contain the labels ordered as requested.
Output: A, C, B
(A: 8.30, C: 7.47, B: 6.83)
